test system: Staphylococcus aureus; test: Antimicrobial activity against Staphylococcus aureus CB809 harboring rpoB H481Y and parC S80F mutant genes by broth microdilution method
Observation type: MIC

GET MIC | system: Staphylococcus aureus | item: `C[C@H]1COc2c(N3CCN(C)CC3)c(F)cc3c(=O)c(C(=O)O)cn1c23.C[C@H]1COc2c(N3CCN(C)CC3)c(F)cc3c(=O)c(C(=O)O)cn1c23.O`
1 µg/mL

Quote MIC with test system Staphylococcus aureus for `Cc1c(N2CC[C@@H](N)C2)c(F)cn2c(=O)c(C(=O)O)cc(C3CC3)c12`
0.03 µg/mL

With Staphylococcus aureus as the test system, provide measured MIC for this compound: `CO[C@H]1/C=C/O[C@@]2(C)Oc3c(C)c(O)c4c(O)c(c(/C=N/N5CCN(C)CC5)c(O)c4c3C2=O)NC(=O)/C(C)=C\C=C\[C@H](C)[C@H](O)[C@@H](C)[C@@H](O)[C@@H](C)[C@H](OC(C)=O)[C@@H]1C`
> 250 µg/mL

Please indicate recorded MIC of `O=C(O)c1cn(C2CC2)c2cc(N3CCNCC3)c(F)cc2c1=O` measured with Staphylococcus aureus.
2 µg/mL

Further cases:
Please report the measured MIC for COc1c(N2CCNC(C)C2)c(F)cc2c(=O)c(C(=O)O)cn(C3CC3)c12 (stereo unspecified) tested on Staphylococcus aureus.
0.25 µg/mL

# return MIC for `CO[C@H]1/C=C/O[C@@]2(C)Oc3c(C)c(O)c4c(O)c(c(/C=N/N5CCC(N(C)C6([C@@H]7CCN(c8c(F)cn9c(=O)c(C(=O)O)cc(C%10CC%10)c9c8C)C7)CC6)CC5)c(O)c4c3C2=O)NC(=O)/C(C)=C\C=C\[C@H](C)[C@H](O)[C@@H](C)[C@@H](O)[C@@H](C)[C@H](OC(C)=O)[C@@H]1C` , test system: Staphylococcus aureus
0.25 µg/mL

====

system: DNA gyrase subunit A (Staphylococcus aureus), P20831 [S84L]; experiment: Activity at Staphylococcus aureus wild-type GyrA S84L mutant
Observation type: CC50 (µM)
Give the quantity in µM, number only.

Note down CC50 recorded for `Cc1c(N2CC[C@@H](N)C2)c(F)cn2c(=O)c(C(=O)O)cc(C3CC3)c12`
0.9

--- query ---
Identify measured CC50 corresponding to COc1c(N2CCNC(C)C2)c(F)cc2c(=O)c(C(=O)O)cn(C3CC3)c12 (centres undefined) [GATIFLOXACIN]
18

====

Each entry below lists one item and its recorded CC50 value.
test system: Staphylococcus aureus; assay: Activity at Staphylococcus aureus wild-type GyrA
The figure you give is taken to be in nM; do not add the unit.

Supply measured CC50 of `Cc1c(N2CC[C@@H](N)C2)c(F)cn2c(=O)c(C(=O)O)cc(C3CC3)c12` in your reply.
90

Tell me its CC50 given COc1c(N2CCNC(C)C2)c(F)cc2c(=O)c(C(=O)O)cn(C3CC3)c12 (centres undefined) as the entry.
700

Look up and report measured CC50 for this entry: `CO[C@H]1/C=C/O[C@@]2(C)Oc3c(C)c(O)c4c(O)c(c(/C=N/N5CCC(N(C)C6([C@@H]7CCN(c8c(F)cn9c(=O)c(C(=O)O)cc(C%10CC%10)c9c8C)C7)CC6)CC5)c(O)c4c3C2=O)NC(=O)/C(C)=C\C=C\[C@H](C)[C@H](O)[C@@H](C)[C@@H](O)[C@@H](C)[C@H](OC(C)=O)[C@@H]1C`
1500

Supply recorded CC50 for `O=C(O)c1cn(C2CC2)c2cc(N3CCNCC3)c(F)cc2c1=O` here.
4600
